# IC50 listing for each entry below
EXPERIMENTAL_TARGET: BACE1 (Homo sapiens, UniProt P56817)
Sequence (P56817 46-501, species assumed): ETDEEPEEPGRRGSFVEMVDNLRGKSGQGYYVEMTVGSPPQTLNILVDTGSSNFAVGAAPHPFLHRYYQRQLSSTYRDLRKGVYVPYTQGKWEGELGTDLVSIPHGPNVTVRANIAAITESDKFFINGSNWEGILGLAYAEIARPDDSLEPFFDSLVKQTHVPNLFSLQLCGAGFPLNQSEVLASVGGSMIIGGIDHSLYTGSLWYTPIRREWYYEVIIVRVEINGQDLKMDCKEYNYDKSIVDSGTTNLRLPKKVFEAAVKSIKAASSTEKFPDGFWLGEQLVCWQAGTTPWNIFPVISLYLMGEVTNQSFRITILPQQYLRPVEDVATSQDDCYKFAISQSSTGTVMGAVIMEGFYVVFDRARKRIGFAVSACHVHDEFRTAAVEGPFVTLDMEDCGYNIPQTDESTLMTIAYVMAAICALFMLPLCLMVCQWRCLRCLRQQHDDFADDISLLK
PROCEDURE_TEXT: In Vitro BACE Cell-based Assay (HEK cell assay): Aβ40 in conditioned medium of cells stably expressing Amyloid Precursor Protein, sandwich ELISA
TEST_CONDITIONS: HEK cells; read-out: HEK cell assay

The following molecules have reported results that may help.
Request: Please look up its IC50: CC1(C)C[C@H](c2cc3c(cn2)Oc2ccc(-c4cccnc4F)cc2[C@@]32COC(N)=N2)CCO1 [compound 432]
Result: < 100 nM

Request: Now try NC1=N[C@@]2(CO1)c1cc(-c3ccc(F)nc3)ccc1Oc1cnc(C3=CCOCC3)cc12 [compound 431] .
Result: < 100 nM

Request: Can you handle CC1(C)CN(c2cc3c(cn2)Oc2ccc(-c4cccnc4)cc2[C@@]32COC(N)=N2)CCO1 [Example 490] next?
Result: < 100 nM

New cases:
Request: Requested read-out: IC50. Entry: COC1CN(c2cc(F)c3c(c2)[C@]2(COC(N)=N2)c2cc(-c4cccnc4)ccc2O3)C1 [compound 474]
Result: < 100 nM

Request: Follow-up entry: NC1=N[C@@]2(CO1)c1cc(-c3cccnc3)ccc1Oc1cnc(N3CCC4(CC3)OCCO4)cc12 [compound 443]
Result: < 100 nM

Request: Similarly, NC1=N[C@]2(CO1)c1cc(C3=CCOC3)ccc1Oc1ccc(-c3cncnc3)cc12 [compound 448] ?
Result: < 100 nM

Request: // same read-out, input: NC1=N[C@@]2(CO1)c1cc(-c3ccc(F)nc3)ccc1Oc1cnc(-c3ccc(F)nc3)cc12 [compound 433]
Result: 100 to 1000 nM

Request: Could you do the same for NC1=N[C@@]2(CO1)c1cc(-c3cccc(Cl)c3)ccc1Oc1cnc(C3=CCOCC3)cc12 [compound 427] , please?
Result: < 100 nM

Request: Now try CC1(C)C=C(c2cc(F)c3c(c2)[C@]2(COC(N)=N2)c2cc(-c4cncnc4)ccc2O3)CCO1 [compound 466] .
Result: < 100 nM

Request: Thanks! And CN1CCN(c2cc3c(cn2)Oc2ccc(-c4cccnc4)cc2[C@@]32COC(N)=N2)CC1 [compound 444] ?
Result: < 100 nM

Request: Consider next the molecule Cn1cc(-c2cc3c(cc2F)Oc2ccc(-c4cccnc4)cc2[C@@]32COC(N)=N2)cn1 [Example 531] in the same way.
Result: < 100 nM

Request: // same read-out, input: Cc1cnc(F)c(-c2ccc3c(c2)[C@@]2(COC(N)=N2)c2cc(C4=CCOCC4)ncc2O3)c1 [Example 286]
Result: < 100 nM

Request: Next record, please: NC1=N[C@@]2(CO1)c1cc(-c3ccccc3F)ccc1Oc1cnc(Cl)cc12 [compound 425]
Result: > 5000 nM

Request: Thanks! And CC(C)C[C@@H]1CN(c2ccc3c(c2)[C@]2(COC(N)=N2)c2cc(-c4cncnc4)ccc2O3)CCO1 [compound 422] ?
Result: 100 to 1000 nM

Request: And for NC1=N[C@@]2(CO1)c1cc(-c3ccccc3F)ccc1Oc1ncc(N3CCOCC3)cc12 [compound 460] ?
Result: 100 to 1000 nM

Request: Repeat for the following molecule: NC1=N[C@]2(CO1)c1cc(C3=CCOCC3)ccc1Oc1cc(F)c(-c3cncnc3)cc12 [compound 529]
Result: < 100 nM

Request: Moving on to the next molecule: CC(C)(F)COc1cnc2c(c1)[C@]1(COC(N)=N1)c1cc(-c3ccc(F)nc3)ccc1O2 [compound 451]
Result: < 100 nM

Request: Record: NC1=N[C@@]2(CO1)c1cc(-c3cncnc3)ccc1Oc1cnc(Cl)cc12 [compound 500]
Result: 1000 to 5000 nM

Request: Now this one: N#Cc1ccc(-n2ccc3c(c2=O)[C@@]2(COC(N)=N2)c2cc(-c4cccnc4)ccc2O3)cc1 [compound 523]
Result: 1000 to 5000 nM

Request: Repeat for the following molecule: CC(C)(C)/C=C/c1cc2c(cn1)Oc1ccc(-c3cncnc3)cc1[C@@]21COC(N)=N1 [Example 291]
Result: < 100 nM

Request: Cool, now NC1=N[C@]2(CO1)c1cc(-c3cncnc3)ccc1Oc1cccnc12 [compound 527]
Result: 100 to 1000 nM

Request: Moving on to CC1(C)C=C(c2cnc3c(c2)[C@]2(COC(N)=N2)c2cc(-c4cncnc4)ccc2O3)CCO1 [compound 478]
Result: < 100 nM

----------
EXPERIMENTAL_TARGET: BACE1 (Homo sapiens)
PROCEDURE_TEXT: In Vitro Enzymatic BACE FRET (Fluorescence Resonance Energy Transfer) Assay
Format: biochemical
TEST_CONDITIONS: Table IV, class symbols; read-out: BACE1 FRET assay
pIC50: −log10 of the molar value.
Entries and their measured pIC50 follow.

// below: answered molecules
Request: Would you mind telling me what pIC50 value was observed for `CC(C)CCCOc1nccc2c1[C@]1(COC(N)=N1)c1cc(-c3cccnc3)ccc1O2` ?
Result: 6.00 to 7.00

Request: Also `NC1=N[C@@]2(CO1)c1ccccc1Oc1ccc(-c3cccnc3F)cc12` ?
Result: 6.00 to 7.00

--- query ---
Request: Quick one: pIC50 for `COCC(=O)Nc1ccc2c(c1)[C@@]1(COC(N)=N1)c1cc(OC)ccc1O2` ?
Result: 6.00 to 7.00

----------
The reader will find reported pIC50 values listed item by item below.
EXPERIMENTAL_TARGET: UniProt P56817
PROCEDURE_TEXT: In Vitro BACE Cell-based Assay (HEK cell assay): Aβ40 in conditioned medium of cells stably expressing Amyloid Precursor Protein, sandwich ELISA
TEST_CONDITIONS: Table II; Aβ40, 24 h incubation; read-out: HEK cell assay
pIC50: −log10 of the molar value.

Request: For the record `NC1=N[C@]2(CO1)c1cc(OCC3CC3)ccc1Oc1ccc(-c3cncnc3)cc12` , what value of pIC50 is listed for UniProt P56817?
Result: > 7.00

Request: Could you do the same for `COc1ncccc1-c1ccc2c(c1)[C@@]1(COC(N)=N1)c1cc(OCC(C)(C)C)ccc1O2` , please?
Result: 5.30 to 6.00

Request: Try the compound `CC(C)(C)COc1ccc2c(c1)[C@@]1(COC(N)=N1)c1cc(-c3cccnc3)cnc1O2`
Result: 6.00 to 7.00

Request: Repeat with `CC(C)(C)COc1ccc2c(c1)[C@]1(COC(N)=N1)c1cc(C#CC3CC3)cnc1O2`
Result: 6.00 to 7.00

Request: What do we get for `Cc1ccc(-c2ccc3c(c2)[C@@]2(COC(N)=N2)c2cc(OCC(C)(C)C)ccc2O3)cn1` ?
Result: 5.30 to 6.00

Request: `CC(C)(C)COc1ccc2c(c1)[C@]1(COC(N)=N1)c1cc(-c3ccc4[nH]ccc4c3)ccc1O2`
Result: 5.30 to 6.00

Request: Then what about the compound `COc1ccc2c(c1)[C@@]1(COC(N)=N1)c1cc(NC(=O)c3ccc(Cl)cn3)ccc1O2` ?
Result: 6.00 to 7.00

Request: Okay, and CC(C)(C)COc1ccc2c(c1)[C@]1(COC(N)=N1)c1cc(-c3cc(Cl)ccc3F)cnc1O2 [Example 91] ?
Result: 6.00 to 7.00

Request: Now this one: `NC1=N[C@]2(CO1)c1cc(OCC(F)(F)F)ccc1Oc1ccc(-c3cncnc3)cc12`
Result: 6.00 to 7.00

Request: Do the same for `CC(C)(C)COc1ccc2c(c1)[C@]1(COC(N)=N1)c1cc(-c3ccccc3)ccc1O2` please
Result: 5.30 to 6.00

More entries:
Request: Provide value of pIC50 for this record tested with UniProt P56817: `NC1=N[C@@]2(CS1)c1cc(Cl)ccc1Oc1ccc(-c3cncnc3)cc12`
Result: < 5.30

Request: Would you mind doing `COc1ccc(-c2ccc3c(c2)[C@@]2(COC(N)=N2)c2cc(OCC(C)(C)C)ccc2O3)cn1` as well?
Result: 5.30 to 6.00

Request: Please give the result for CC(C)(C)COc1ccc2c(c1)C1(COC(N)=N1)c1cc(Br)ccc1O2 (centres unmarked) too.
Result: 5.30 to 6.00

Request: Another compound to look at: `COc1ccc2c(c1)[C@]1(COC(N)=N1)c1cc(-c3cncnc3)cnc1O2`
Result: < 5.30

----------
EXPERIMENTAL_TARGET: BACE1 (Homo sapiens, UniProt P56817)
PROCEDURE_TEXT: In Vitro BACE Cell-based Assay (HEK cell assay): Aβ40 in conditioned medium of cells stably expressing Amyloid Precursor Protein, sandwich ELISA
TEST_CONDITIONS: read-out: HEK cell assay
pIC50: −log10 of the molar value.
OBSERVABLE: pIC50

Request: // lookup pIC50 | system=BACE1 (Homo sapiens, UniProt P56817) | key= `COC(C)(C)C#Cc1cnc2c(c1)[C@@]1(COC(N)=N1)c1cc(-c3cccnc3)ccc1O2`
Result: 6.00 to 7.00

Request: Then this molecule: NC1=NC2(CO1)c1cnc(Cl)cc1Oc1ccc(-c3cccnc3)cc12 (stereo not shown)
Result: < 5.30

Request: // repeat for `NC1=N[C@]2(CO1)c1cc(OCC3CCOCC3)ccc1Oc1ccc(-c3cccnc3)cc12` and report
Result: > 7.00

Request: // next record `CC(C)(C)COc1ccc2c(c1)[C@@]1(COC(N)=N1)c1cc(-c3ccc(OCC(F)(F)F)nc3)cnc1O2`
Result: > 7.00

Request: Now the molecule `N#Cc1ccccc1Oc1ccc2c(c1)[C@]1(COC(N)=N1)c1cc(Br)ccc1O2`
Result: < 5.30

Request: Thanks! And `NC1=N[C@@]2(CO1)c1cc(-c3cccnc3)ccc1Oc1ccc(-c3cccnc3)nc12` ?
Result: 6.00 to 7.00

Request: And then `CC1(C)CC(c2ccc3c(c2)[C@]2(COC(N)=N2)c2cc(-c4cncnc4)ccc2O3)=CCO1` , what is it?
Result: > 7.00

Request: Try `COc1ccncc1-c1ccc2c(c1)[C@]1(COC(N)=N1)c1cc(OCC(C)(C)C)ccc1O2` next.
Result: 5.30 to 6.00

Next:
Request: Form field - read-out: pIC50; system: BACE1 (Homo sapiens, UniProt P56817); submitted item: `Cc1noc(C)c1-c1ccc2c(c1)[C@@]1(COC(N)=N1)c1cc(OCC(C)(C)C)ccc1O2`
Result: < 5.30

Request: Then this molecule: `CON(C)C(=O)COc1ccc2c(c1)[C@]1(COC(N)=N1)c1cc(-c3cccnc3)ccc1O2`
Result: 5.30 to 6.00

Request: `NC1=N[C@@]2(CO1)c1cc(-c3cccnc3)ccc1Oc1cnc(Cl)cc12` ?
Result: 5.30 to 6.00

Request: Record: `CNCc1ccc(-c2ccc3c(c2)[C@]2(COC(N)=N2)c2cc(OCC(C)(C)C)ccc2O3)cc1`
Result: 5.30 to 6.00

Request: Let us now turn to `CC1(COc2cc3c(cc2F)Oc2ccc(-c4cncnc4)cc2[C@@]32COC(N)=N2)COC1`
Result: > 7.00
